Molecular target: Mitogen-activated protein kinase 12 (Homo sapiens)
Sequence (whole entry): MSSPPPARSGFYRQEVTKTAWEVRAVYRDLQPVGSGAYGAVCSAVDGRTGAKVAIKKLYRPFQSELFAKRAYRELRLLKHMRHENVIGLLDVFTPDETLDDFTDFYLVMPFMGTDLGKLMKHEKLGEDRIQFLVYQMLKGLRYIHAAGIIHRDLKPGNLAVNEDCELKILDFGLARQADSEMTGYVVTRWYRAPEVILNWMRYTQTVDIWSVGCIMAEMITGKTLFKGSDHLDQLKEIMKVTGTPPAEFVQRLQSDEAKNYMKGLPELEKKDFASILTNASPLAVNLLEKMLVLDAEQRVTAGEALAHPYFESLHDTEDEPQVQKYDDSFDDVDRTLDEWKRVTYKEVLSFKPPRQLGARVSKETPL
Conditions: at 0.1 µM
Description: GSK_PKIS: P38gamma mean inhibition at 0.1 uM [Nanosyn]
measured parameter: inhibition (%)

given_smiles=COc1cc2c(cc1Nc1nc(Nc3ccsc3C(N)=O)c3cc[nH]c3n1)N(C(=O)CN(C)C)CCC2 measured_parameter=inhibition unit_abbrev=% measured_value=2.28
given_smiles=NS(=O)(=O)c1ccc(N/C=C2\C(=O)Nc3ccc4ncsc4c32)cc1 measured_parameter=inhibition unit_abbrev=% measured_value=2.86
given_smiles=Cc1cc(-c2ccco2)cc(C)c1/C=C/c1cncc(-c2nn[nH]n2)c1 measured_parameter=inhibition unit_abbrev=% measured_value=0.9
given_smiles=CCn1c(-c2nonc2N)nc2c(C#CC(C)(C)O)ncc(OCC3CCNCC3)c21 measured_parameter=inhibition unit_abbrev=% measured_value=1.19
given_smiles=CCn1c(-c2nonc2N)nc2c(C#CC(C)(C)O)nc(O[C@@H](CN)c3ccccc3)cc21 measured_parameter=inhibition unit_abbrev=% measured_value=1.29
given_smiles=COc1cc(C=NNc2ncnc3c2cnn3Cc2ccccc2)ccc1O measured_parameter=inhibition unit_abbrev=% measured_value=-2.53
given_smiles=Nc1nonc1-c1nc2cnccc2n1C1CCCCC1 measured_parameter=inhibition unit_abbrev=% measured_value=-0.65
given_smiles=COc1cccc(COc2cc(-n3cnc4ccccc43)sc2C(N)=O)c1 measured_parameter=inhibition unit_abbrev=% measured_value=-0.12
given_smiles=CCn1c(-c2nonc2N)nc2c(C#CC(C)(C)O)ncc(OC[C@@H]3CCCN3)c21 measured_parameter=inhibition unit_abbrev=% measured_value=0.36

Origin of the recorded values: ChEMBL document CHEMBL1961873
